# testedSystem: T1, SWSAP1 (hSWS1-SWSAP1, WT);hSWS1 (Homo sapiens;Homo sapiens, UniProt Q6NVH7;Q19AV6 22-250;1-140, |)
# T1 sequence 1: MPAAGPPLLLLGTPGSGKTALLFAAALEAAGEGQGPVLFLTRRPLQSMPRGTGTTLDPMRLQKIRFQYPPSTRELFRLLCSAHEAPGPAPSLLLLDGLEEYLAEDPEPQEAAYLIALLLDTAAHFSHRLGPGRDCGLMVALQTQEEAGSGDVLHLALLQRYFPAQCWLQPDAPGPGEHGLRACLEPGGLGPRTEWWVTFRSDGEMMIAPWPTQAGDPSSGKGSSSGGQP
# T1 sequence 2: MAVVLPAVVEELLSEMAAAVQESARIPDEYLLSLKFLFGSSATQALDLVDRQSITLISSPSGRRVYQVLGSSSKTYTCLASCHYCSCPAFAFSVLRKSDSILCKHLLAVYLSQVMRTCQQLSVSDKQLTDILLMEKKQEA
# assayInfo: fluorescence polarization; no nucleotide; FPA: 5 nM 6-FAM DNA, 37 C, 2 mM nucleotide where stated (buffer not given in material); EMSA: 0.05 uM 6-FAM DNA, 5%/15% native PAGE; RAD51 filaments: 2 mM ATP
# conditionDescription: protein: recombinant;recombinant; tags: N-terminal 6xHis-TEV, cleaved;none; copies: 1;1; label: 3' 6-FAM on strand 1; 5' overhang 20 nt
propertyMeasured: Kd (µM)
Numbers only, in µM.

Look up Kd: 5'-overhang (dsDNA) DNA 1: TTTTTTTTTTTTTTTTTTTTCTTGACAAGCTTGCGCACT DNA 2: AGTGCGCAAGCTTGTCAAG
3.6
